target: IgG4 (Homo sapiens, UniProt P01861); type: binding; design: all human subtypes derived from myeloma patients; purchased Calbiochem 400126; host or cells: myeloma patients; details: Table 13
Sequence (P01861 1-327 isoform P01861-1): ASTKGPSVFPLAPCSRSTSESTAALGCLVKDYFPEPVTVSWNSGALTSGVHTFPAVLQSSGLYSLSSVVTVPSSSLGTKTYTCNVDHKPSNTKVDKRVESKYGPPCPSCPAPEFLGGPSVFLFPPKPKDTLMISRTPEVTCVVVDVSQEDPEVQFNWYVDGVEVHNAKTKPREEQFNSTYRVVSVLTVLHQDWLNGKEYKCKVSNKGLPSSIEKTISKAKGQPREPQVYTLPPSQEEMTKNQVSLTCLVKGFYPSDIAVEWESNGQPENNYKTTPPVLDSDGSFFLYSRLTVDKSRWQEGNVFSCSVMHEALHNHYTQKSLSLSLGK
Assign hIgG4 elution pH 3.0 (% of Total Load) to each entry below.
Number first, unit second.

Examples with answers:
>>> observed_value("Ac-GDNPMCWRAHWWEDAYCINHEPGPEGGGK-NH2 (not fully specified (bridges); printed as Ac-GDNPMCWRAHWWEDAYCINHEPGPEGGGK-NH2; cysteine pairing not given here) [DX1072]")
"11%"
>>> observed_value("Ac-GDWGECTVTSYGELIWCGGLEPGPEGGGK-NH2 (not fully specified (bridges); printed as Ac-GDWGECTVTSYGELIWCGGLEPGPEGGGK-NH2; cysteine pairing not given here) [DX1070]")
"14%"
>>> observed_value("Ac-GDNPMCWRASWWEDAYCINHEPGPEGGGK-NH2 (not fully specified (bridges); printed as Ac-GDNPMCWRASWWEDAYCINHEPGPEGGGK-NH2; cysteine pairing not given here) [DX1071]")
"5%"

# next substance below
Input line: Kindly state the measured hIgG4 elution pH 3.0 (% of Total Load) obtained for Ac-GDRRACSRDWSGALVWCAGHEPGPEGGGK-NH2 (not fully specified (bridges); printed as Ac-GDRRACSRDWSGALVWCAGHEPGPEGGGK-NH2; cysteine pairing not given here) [DX253] with IgG4 (Homo sapiens, UniProt P01861).
Output line: 49%

====

system: human IgG; type: binding; settings: Table 18; average ligand density 1.9 μmole/ml
code X = not defined here; code Z = not defined here; Su = not defined here
endpoint-name: Batch Binding (% Capture of Total Load) hIgG (%)
Give bare numbers, in %.

>>> observed_value("Ac-GDDHMCVYTTWGELIWCDNHEPG-X-Su-X-NH2 (Ac-GDDHMCVYTTWGELIWCDNHEPG-{code X-Su-code X-NH2}; not fully specified (bridges); printed as Ac-GDDHMCVYTTWGELIWCDNHEPG-X-Su-X-NH2; cysteine pairing not given here; reading uncertain) [DX878]")
63
>>> observed_value("Ac-GDDHMCVYTTWGELIWCDNHEPGPEG-X-NH2 (Ac-GDDHMCVYTTWGELIWCDNHEPGPEG-{code X-NH2}; not fully specified (bridges); printed as Ac-GDDHMCVYTTWGELIWCDNHEPGPEG-X-NH2; cysteine pairing not given here; reading uncertain) [DX877]")
61
>>> observed_value("Ac-GDDHMCVYTTWGELIWCDNH-X-Su-X-NH2 (Ac-GDDHMCVYTTWGELIWCDNH-{code X-Su-code X-NH2}; not fully specified (bridges); printed as Ac-GDDHMCVYTTWGELIWCDNH-X-Su-X-NH2; cysteine pairing not given here; reading uncertain) [DX909]")
49
>>> observed_value("Ac-GDDHMCVYTTWGELIWCDNH-X-Z-X-NH2 (Ac-GDDHMCVYTTWGELIWCDNH-{code X-code Z-code X-NH2}; not fully specified (bridges); printed as Ac-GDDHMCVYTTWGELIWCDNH-X-Z-X-NH2; cysteine pairing not given here; reading uncertain) [DX911]")
43

Input line: Param item = Ac-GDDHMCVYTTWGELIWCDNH-X-NH2 (Ac-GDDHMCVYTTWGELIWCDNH-{code X-NH2}; not fully specified (bridges); printed as Ac-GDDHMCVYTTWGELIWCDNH-X-NH2; cysteine pairing not given here; reading uncertain) [DX907] ; retrieve measured Batch Binding (% Capture of Total Load) hIgG.
Output line: 49

====

tested on: human IgG; type: binding; details: peptide immobilized on NHS activated sepharose 4 fast flow, target ligand density 2.0 μmole/ml; batch filterplate; hIgG
endpoint-name: Batch Binding (% Capture of Total Load) hIgG
Number first, unit second.

>>> observed_value("Ac-ECSRDWSGALVWCAGHEPGPEGGGK-NH2 (not fully specified (bridges); printed as Ac-ECSRDWSGALVWCAGHEPGPEGGGK-NH2; cysteine pairing not given here) [DX1144]")
"81%"
>>> observed_value("Ac-TCSRDWSGALVWCAGHEPGPEGGGK-NH2 (not fully specified (bridges); printed as Ac-TCSRDWSGALVWCAGHEPGPEGGGK-NH2; cysteine pairing not given here) [DX1143]")
"81%"
>>> observed_value("Ac-VCSRDWSGALVWCAGHEPGPEGGGK-NH2 (not fully specified (bridges); printed as Ac-VCSRDWSGALVWCAGHEPGPEGGGK-NH2; cysteine pairing not given here) [DX1145]")
"66%"
>>> observed_value("Ac-ERACSRDWSGALVWCAGHEPGPEGGGK-NH2 (not fully specified (bridges); printed as Ac-ERACSRDWSGALVWCAGHEPGPEGGGK-NH2; cysteine pairing not given here) [DX1141]")
"21%"
>>> observed_value("Ac-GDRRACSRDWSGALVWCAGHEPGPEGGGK-NH2 (not fully specified (bridges); printed as Ac-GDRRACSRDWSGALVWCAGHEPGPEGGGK-NH2; cysteine pairing not given here) [DX253]")
"79%"

Input line: Param item = Ac-ACSRDWSGALVWCAGHEPGPEGGGK-NH2 (not fully specified (bridges); printed as Ac-ACSRDWSGALVWCAGHEPGPEGGGK-NH2; cysteine pairing not given here) [DX1142] ; retrieve measured Batch Binding (% Capture of Total Load) hIgG.
Output line: 57%
